EC50 values, listed per item
Test system: A549
Test: Antitumor activity against human A549 cells after 24 hrs by MTT assay
Assay type: functional
Settings: A549, 24 h, read-out: ED50 (the source's name)
# unit: µM | format: bare number

Examples from the recorded data:
{"smiles.record": "CCCCCCCCCC[C@H](O)[C@H]1CC[C@H]([C@H]2CC[C@H]([C@H](O)CCCCC(=O)CCCCCCCC3=C[C@H](C)OC3=O)O2)O1", "unit.info": "µM", "endpoint.result": 148}
{"smiles.record": "CCCCCCCCCC[C@H](OC(C)=O)[C@H]1CC[C@H]([C@H]2CC[C@H]([C@@H](CCCCC(=O)CCCCCCCC3=C[C@H](C)OC3=O)OC(C)=O)O2)O1", "unit.info": "µM", "endpoint.result": 60}
{"smiles.record": "CCCCCCCCCC[C@H](OC(C)=O)[C@H]1CC[C@H]([C@H]2CC[C@H]([C@H](O)CCCCC(=O)CCCCCCCC3=C[C@H](C)OC3=O)O2)O1", "unit.info": "µM", "endpoint.result": 192}
{"smiles.record": "CCCCCCCCCC[C@H](O)[C@H]1CC[C@H]([C@H]2CC[C@H]([C@@H](CCCCC(=O)CCCCCCCC3=C[C@H](C)OC3=O)OC(C)=O)O2)O1", "unit.info": "µM", "endpoint.result": 101}

[ask] Given C=C(C)[C@H]1Cc2c(ccc3c2O[C@@H]2COc4cc(OC)c(OC)cc4[C@@H]2C3=O)O1 , state its recorded EC50.
[reply] 26

[ask] Please report the recorded EC50 for COc1cccc2c1C(=O)c1c(O)c3c(c(O)c1C2=O)C[C@@](O)(C(=O)CO)C[C@@H]3O[C@H]1C[C@H](N)[C@H](O)[C@H](C)O1 .
[reply] 152

* * *

Assay: Inhibition of NADH-ubiquinone oxidoreductase assessed by NADH oxidase activity in beef heart submitochondrial particles
Set-up: species or system Bos taurus
endpoint.name: log10 of IC50 (log10 of the value in nM)
Note the log scale: values are log10 of IC50 expressed in nM.

Past entries and their recorded results:
{"smiles.record": "CCCCCCCCCC[C@H](O)[C@H]1CC[C@H]([C@H]2CC[C@H]([C@@H](CCCCC(=O)CCCCCCCC3=C[C@H](C)OC3=O)OC(C)=O)O2)O1", "endpoint.name": "log10 of IC50", "endpoint.result": 0.45}
{"smiles.record": "C=C(C)[C@H]1Cc2c(ccc3c2O[C@@H]2COc4cc(OC)c(OC)cc4[C@@H]2C3=O)O1", "endpoint.name": "log10 of IC50", "endpoint.result": 0.71}
{"smiles.record": "CCCCCCCCCC[C@H](OC(C)=O)[C@H]1CC[C@H]([C@H]2CC[C@H]([C@H](O)CCCCC(=O)CCCCCCCC3=C[C@H](C)OC3=O)O2)O1", "endpoint.name": "log10 of IC50", "endpoint.result": 0.53}

[ask] State the recorded log10 of IC50 for this entry: CCCCCCCCCC[C@H](O)[C@H]1CC[C@H]([C@H]2CC[C@H]([C@H](O)CCCCC(=O)CCCCCCCC3=C[C@H](C)OC3=O)O2)O1
[reply] 0.08

[ask] Look at this compound and give its reported log10 of IC50. CCCCCCCCCC[C@H](OC(C)=O)[C@H]1CC[C@H]([C@H]2CC[C@H]([C@@H](CCCCC(=O)CCCCCCCC3=C[C@H](C)OC3=O)OC(C)=O)O2)O1
[reply] -0.40
